The origin of these recorded values is patent US20260297042A1.

Target: WEE1 (Homo sapiens, UniProt P30291)
Construct: purchased Thermo Fisher PR7373A
Sequence (P30291 whole entry): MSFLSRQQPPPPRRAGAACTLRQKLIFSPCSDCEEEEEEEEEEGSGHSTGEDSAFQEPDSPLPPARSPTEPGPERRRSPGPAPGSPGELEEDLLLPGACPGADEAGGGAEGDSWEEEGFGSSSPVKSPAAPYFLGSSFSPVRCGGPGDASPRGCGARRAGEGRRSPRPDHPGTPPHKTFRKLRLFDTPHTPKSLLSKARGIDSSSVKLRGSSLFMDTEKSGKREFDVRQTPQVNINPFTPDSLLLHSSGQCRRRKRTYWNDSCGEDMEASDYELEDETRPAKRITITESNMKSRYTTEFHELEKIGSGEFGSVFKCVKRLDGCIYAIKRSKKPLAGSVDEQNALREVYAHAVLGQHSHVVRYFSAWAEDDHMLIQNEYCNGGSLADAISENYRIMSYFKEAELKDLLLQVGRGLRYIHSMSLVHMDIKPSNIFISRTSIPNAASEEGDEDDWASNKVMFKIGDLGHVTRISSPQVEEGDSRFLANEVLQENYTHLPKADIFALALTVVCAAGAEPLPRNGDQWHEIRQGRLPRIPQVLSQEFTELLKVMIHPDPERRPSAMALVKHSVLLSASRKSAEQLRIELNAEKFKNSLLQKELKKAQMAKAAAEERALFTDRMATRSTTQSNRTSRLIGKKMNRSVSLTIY
Test: Selectivity versus WEE1 assay (ADP-Glo enzymatic assay)
Type: biochemical
Details: WEE1 15 nM; ADP-Glo; banded values
I'd be grateful if you could share measured IC50 for these entries.

What does the record list as IC50 for CCN(CC)C(=O)C(C)n1nc(Nc2ncc(C(=O)Nc3c(C)ccc(O)c3C)s2)cc1C (centres unmarked) ?
> 11 µM

I have this compound here, Cc1ccc(O)c(C)c1NC(=O)c1cnc(Nc2ccn(C(C)C(=O)N3CCCC3)n2)s1 (centres unmarked) , and I need its recorded IC50.
1 to 11 µM

Which IC50 is listed for CCN(CC)C(=O)C(CO)n1cc(C)c(Nc2ncc(C(=O)Nc3c(C)ccc(O)c3C)s2)n1 (centres unmarked) ?
1 to 11 µM

Quick one: IC50 of CCC(C(=O)N1CCN(C)CC1)n1ccc(Nc2ncc(C(=O)Nc3c(C)ccc(O)c3C)s2)n1 (centres unmarked) ?
> 11 µM

IC50 lookup needed for Cc1ccc(O)c(C)c1NC(=O)c1nnc(Nc2ccn(C)n2)s1 , thanks.
> 11 µM

Requested field: IC50. Item: Cc1ccc(O)c(C)c1NC(=O)c1cnc(Nc2nc3ccccc3s2)s1
> 11 µM

Looking for the measured IC50 of Cc1ccc(O)c(C)c1NC(=O)c1cnc(Nc2cccc(CC(=O)N(C3CC3)C3CC3)n2)s1 , can you help?
> 11 µM

// returns reported IC50 for input Cc1cn(CC(=O)N(C)CCC#N)nc1Nc1ncc(C(=O)Nc2c(C)ccc(O)c2C)s1
1 to 11 µM

###

Target: Human PKMYT1 (Homo sapiens, UniProt Q99640)
Construct: Human PKMYT1 75-362 was cloned as a TEV cleavable 6xHis fusion; 6xHis (TEV cleavable) (cleaved yes); made in house; host or cells: bacterial cells
Sequence (Q99640 75-362): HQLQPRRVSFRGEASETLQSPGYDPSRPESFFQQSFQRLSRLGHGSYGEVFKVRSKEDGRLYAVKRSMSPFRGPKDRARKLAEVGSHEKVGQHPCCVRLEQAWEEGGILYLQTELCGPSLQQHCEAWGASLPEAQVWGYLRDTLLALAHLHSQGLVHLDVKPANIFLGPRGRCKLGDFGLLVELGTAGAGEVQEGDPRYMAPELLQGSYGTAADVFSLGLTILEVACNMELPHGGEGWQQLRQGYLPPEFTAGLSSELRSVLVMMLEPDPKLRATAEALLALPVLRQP
Experiment: PKMYT1 biochemical ADP-Glo enzymatic assay
Conditions: PKMYT1 kinase domain 15 nM; ADP-Glo; banded values
Assignment: determine reported IC50 for the given compounds.

Any idea what IC50 was measured for Cc1ccc(O)c(C)c1NC(=O)c1cnc(Nc2n[nH]cc2Br)s1 ?
< 50 nM

Reported IC50 for Cc1cn(-c2cnn(C(F)F)c2)nc1Nc1ncc(C(=O)Nc2c(C)ccc(O)c2C)s1 : what is it?
< 50 nM

If you can, please state the reported IC50 value of CCc1ccccc1Nc1ncc(C(=O)Nc2c(C)ccc(O)c2C)s1 .
50 to 1000 nM

Requested field: IC50. Item: Cc1ccc(O)c(C)c1NC(=O)c1cnc(Nc2cc(C)n(C(C)C(=O)N3CCCC3)n2)s1 (stereo not drawn)
50 to 1000 nM

Quick check: IC50 of Cc1ccc(O)c(C)c1NC(=O)c1cnc(Nc2ncccc2C2CC2)s1 ?
< 50 nM

Name the reported IC50 value associated with the compound Cc1ccc(O)c(C)c1NC(=O)c1cnc(Nc2nn(CC(F)F)cc2Cl)s1
< 50 nM

IC50 for Cc1ccc(O)c(C)c1NC(=O)c1cnc(Nc2cc(N3CCOCC3)ccn2)s1 ?
< 50 nM

# input compound: CCC(C(=O)N1CCN(C)CC1)n1ccc(Nc2ncc(C(=O)Nc3c(C)ccc(O)c3C)s2)n1 (stereo not drawn) ; wanted: its IC50
< 50 nM

May I ask what IC50 has been recorded for Cc1cn(CC(=O)N(C)CC(F)(F)F)nc1Nc1ncc(C(=O)Nc2c(C)ccc(O)c2C)s1 ?
< 50 nM

###

Target: Human PKMYT1 (Homo sapiens)
Construct: Human PKMYT1 75-362 was cloned as a TEV cleavable 6xHis fusion; 6xHis (TEV cleavable) (cleaved yes); made in house; host or cells: bacterial cells
Test: PKMYT1 biochemical ADP-Glo enzymatic assay
Conditions: ADP-Glo; 15 nM PKMYT1 kinase domain, 500 µM ATP, 60 minutes at 26° C.; banded
Measured endpoint: IC50

Query: IC50; subject: Cc1ccc(O)c(C)c1NC(=O)c1cnc(Nc2nc(C)c(-c3cc(F)cc(F)c3)c(C)n2)s1
50 to 1000 nM

Name the reported IC50 value associated with the molecule Cc1ccc(O)c(C)c1NC(=O)c1cnc(Nc2ccn(C3CCCOC3)n2)s1 (stereo not drawn)
< 50 nM

Give its IC50 value. Item: Cc1ccc(O)c(C)c1NC(=O)c1cnc(Nc2ncc[nH]2)s1
1000 to 11000 nM

Any idea what IC50 was measured for Cc1ccc(O)c(C)c1NC(=O)c1cnc(Nc2nn(C)c3cccnc23)s1 ?
< 50 nM

Please give the measured IC50 for this molecule: Cc1ccc(O)c(C)c1NC(=O)c1cnc(Nc2ccn([C@H]3CCN(C(=O)OC(C)(C)C)C3)n2)s1
50 to 1000 nM

Give its IC50 value. Item: Cc1ccc(O)c(C)c1NC(=O)c1cnc(Nc2ncco2)s1
50 to 1000 nM

Find the recorded IC50 belonging to Cc1ccc(O)c(C)c1NC(=O)c1cnc(NCc2ccncc2)s1 and report it.
50 to 1000 nM

Given Cc1ccc(O)c(C)c1NC(=O)c1cnc(NC2CCCCC2)s1 , state its recorded IC50.
1000 to 11000 nM

Param item = Cc1ccc(O)c(C)c1NC(=O)c1cnc(Nc2ccn(CC(=O)N3CCCC3)n2)s1 ; retrieve measured IC50.
< 50 nM

###

Tested on: OVCAR 3 cells
Assay: Cancer cell line proliferation assay, ATP-based cell viability (Cell Titre Glow), OVCAR 3 (CCNE1-amplified)
Conditions: KYSE30 (normal CCNE1) GI50 vs. OVCAR 3 (CCNE1-amplified) GI50
Measured endpoint: Selectivity ratio KYSE30 Gl50 vs. OVCAR3 Gl50

As a guide, the following entries are already answered.
[
  {
    "Molecule": "CCn1nc(Nc2ncc(C(=O)Nc3c(C)ccc(O)c3C)s2)c2cc(F)ccc21",
    "Target": "OVCAR 3 cells",
    "Recorded value": "Y (>20 fold)"
  },
  {
    "Molecule": "Cc1cnccc1-n1cc(C)c(Nc2ncc(C(=O)Nc3c(C)ccc(O)c3C)s2)n1",
    "Target": "OVCAR 3 cells",
    "Recorded value": "Y (>20 fold)"
  },
  {
    "Molecule": "C=CC(=O)Nc1ccc(C)c(Nc2ncc(C(=O)Nc3c(C)ccc(O)c3C)s2)n1",
    "Target": "OVCAR 3 cells",
    "Recorded value": "X (3-20 fold)"
  },
  {
    "Molecule": "Cc1ccc(O)c(C)c1NC(=O)c1cnc(Nc2cccc(-c3cc(F)cc(F)c3)n2)s1",
    "Target": "OVCAR 3 cells",
    "Recorded value": "Y (>20 fold)"
  },
  {
    "Molecule": "Cc1ccc(O)c(C)c1NC(=O)c1cnc(Nc2cccc(-c3ccc(F)cc3)n2)s1",
    "Target": "OVCAR 3 cells",
    "Recorded value": "X (3-20 fold)"
  },
  {
    "Molecule": "Cc1ccc(O)c(C)c1NC(=O)c1cnc(Nc2cc(C)n(CC(C)C)n2)s1",
    "Target": "OVCAR 3 cells",
    "Recorded value": "Y (>20 fold)"
  },
  {
    "Molecule": "Cc1ccc(O)c(C)c1NC(=O)c1cnc(Nc2ccc3ccncc3n2)s1",
    "Target": "OVCAR 3 cells",
    "Recorded value": "Y (>20 fold)"
  },
  {
    "Molecule": "Cc1cn(-c2cccnc2)nc1Nc1ncc(C(=O)Nc2c(C)ccc(O)c2C)s1",
    "Target": "OVCAR 3 cells",
    "Recorded value": "Y (>20 fold)"
  }
]

Now examine the next entry.
Selectivity ratio KYSE30 Gl50 vs. OVCAR3 Gl50 for CCCn1nc(Nc2ncc(C(=O)Nc3c(C)ccc(O)c3C)s2)c2ccccc21 ?
Y (>20 fold)
